Give pKi for every item shown.
# Target or system: thrombin (Homo sapiens, UniProt P00734)
# Procedure text: Comparative Ki value determination on optimized isohirudins (method of Stone and Hofsteenge, chromogenic substrate D-HHT-Gly-Arg-pNA)
# Format: biochemical
# Settings: 25° C., pH 8.3, 0.1 M tris, 0.2 M NaCl, 0.1% Triton X-100; Ki = koff/kon; read-out: Ki(app.)
One number for each entry, as −log10 of the molar value.

• [Ala^1,Thr^2,Glu^33,Gln^52,Glu^53,Ala^54 ]-desulfatohirudin (protein, ends and bridges not checked) ATYTDCTESGQNLCLCEGSNVCGQGNKCILGSEGEKNQCVTGEGTPKPQSHQEADFEEIPEEYLQ = 9.51

# batch: return pKi for each of the 3 molecules below
1. [Ala^1,Thr^2,Glu^53 ] desulfatohirudin (protein, ends and bridges not checked) ATYTDCTESGQNLCLCEGSNVCGQGNKCILGSDGEKNQCVTGEGTPKPQSHNEGDFEEIPEEYLQ
2. [Ala^1,Thr^2,Gln^52,Glu^53,Glu^55 ] desulfatohirudin (protein, ends and bridges not checked) ATYTDCTESGQNLCLCEGSNVCGQGNKCILGSDGEKNQCVTGEGTPKPQSHQEGEFEEIPEEYLQ
3. [Ala^1,Thr^2,Glu^33,Gln^52,Glu^53,Glu^55 ]-desulfatohirudin (protein, ends and bridges not checked) ATYTDCTESGQNLCLCEGSNVCGQGNKCILGSEGEKNQCVTGEGTPKPQSHQEGEFEEIPEEYLQ

## Result
[9.42, 9.72, 9.52]

Give one value of pKi per listed molecule.
1. [Ala^1,Thr^2,Gln^52,Glu^53,Ala^54 ] desulfatohirudin (protein, ends and bridges not checked) ATYTDCTESGQNLCLCEGSNVCGQGNKCILGSDGEKNQCVTGEGTPKPQSHQEADFEEIPEEYLQ
2. [Ala^1,Thr^2,Ala^54 ] desulfatohirudin (protein, ends and bridges not checked) ATYTDCTESGQNLCLCEGSNVCGQGNKCILGSDGEKNQCVTGEGTPKPQSHNDADFEEIPEEYLQ
3. [Ala^1,Thr^2,Glu^33 ] desulfatohirudin (protein, ends and bridges not checked) ATYTDCTESGQNLCLCEGSNVCGQGNKCILGSEGEKNQCVTGEGTPKPQSHNDGDFEEIPEEYLQ
4. [Ala^1 Thr^2,Glu^33,Ala^54 ] desulfatohirudin (protein, ends and bridges not checked) ATYTDCTESGQNLCLCEGSNVCGQGNKCILGSEGEKNQCVTGEGTPKPQSHNDADFEEIPEEYLQ

## Result
1: 9.66; 2: 9.57; 3: 9.80; 4: 9.46
